From: patent US20180327367A1

- Target Desc: SpsB (Staphylococcus aureus signal peptidase) (Staphylococcus aureus, UniProt P0A070)
- Construct: This assay uses a suspension of Staphylococcus aureus cells as a source of SpsB instead of recombinant SpsB protein; endogenous in cells; host or cells: S. aureus, USA300 background, overexpressing SpsB (whole-cell suspension from frozen pellets)
- Sequence (P0A070 whole entry): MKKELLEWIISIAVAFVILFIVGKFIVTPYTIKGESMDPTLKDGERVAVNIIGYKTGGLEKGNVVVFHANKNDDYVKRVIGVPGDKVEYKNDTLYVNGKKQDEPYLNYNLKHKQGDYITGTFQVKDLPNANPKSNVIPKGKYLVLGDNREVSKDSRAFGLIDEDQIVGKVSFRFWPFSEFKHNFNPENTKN
- Method Summary: cell-based
- Type: biochemical
- Test Context: SpsB IC50, whole-cell S. aureus (USA300 background, overexpressing SpsB) as SpsB source; fluorogenic peptide substrate, kinetic read 30 min
Measure: pIC50
The value called pIC50 is obtained by taking minus log10 of the concentration in mol/L.

Below are worked cases with known answers.
Mol Smiles: CCCCCCCc1cc(C)c(C(=O)N[C@@H](CCN)C(=O)N(C)[C@@H]2C(=O)N[C@@H](C)C(=O)N[C@H](C(=O)NCC#N)Cc3ccc(OCCN)c(c3)-c3cc2ccc3OCCN)cc1F
Measure: pIC50
Recorded Result: 9.14

Mol Smiles: C[C@@H]1NC(=O)[C@@H](N(C)C(=O)[C@H](CCN)NC(=O)c2ccc(CCc3ccccc3)cc2)c2ccc(OCCN)c(c2)-c2cc(ccc2OCCN)C[C@@H](C(=O)NCC#N)NC1=O
Measure: pIC50
Recorded Result: 8.92

Mol Smiles: Cc1cc(-c2ccc(-c3ccccc3)cc2)ccc1C(=O)N[C@@H](CCN)C(=O)N(C)[C@@H]1C(=O)N[C@@H](C)C(=O)N[C@H](C(=O)NCC#N)Cc2ccc(OCCN)c(c2)-c2cc1ccc2OCCN
Measure: pIC50
Recorded Result: 9.04

Mol Smiles: CCCCCCCCc1cc(C)c(C(=O)N[C@@H](CCN)C(=O)N(C)[C@@H]2C(=O)N[C@@H](C)C(=O)N[C@H](C(=O)NCC#N)Cc3ccc(OCCN)c(c3)-c3cc2ccc3OCCN)s1
Measure: pIC50
Recorded Result: 9.11

Field: next compound
Entry "CCCCc1ccc(-c2ccc(C(=O)N[C@@H](CCCCN)C(=O)N(C)[C@@H]3C(=O)N[C@@H](C)C(=O)N[C@H](C(=O)N[C@@H](C)C#N)Cc4ccc(OCCN)c(c4)-c4cc3ccc4OCCN)cc2)cc1" : pIC50 on SpsB (Staphylococcus aureus signal peptidase) (Staphylococcus aureus, UniProt P0A070) = 9.25
